Entries annotated with measured cell viability
System: Vero E6
TEST_NAME: cell viability relative to DMSO; higher = less toxic
CONDITION_LABEL: 72 h; 100 nM
Provide the reading as a plain figure in %.

COMPOUND	cell viability (%)
Cn1nnnc1SCC1=C(C(=O)O)N2C(=O)[C@@H](NC(=O)[C@H](OC=O)c3ccccc3)[C@H]2SC1 [cefamandole-nafate]	96.9
C[C@@H](O)[C@@H]1NC(=O)[C@H](CCCCN)NC(=O)[C@@H](Cc2c[nH]c3ccccc23)NC(=O)[C@H](Cc2ccccc2)NC(=O)[C@@H](NC(=O)[C@H](N)Cc2ccccc2)CSSC[C@@H](C(=O)N[C@H](CO)[C@@H](C)O)NC1=O [octreotide]	110
COc1ccc(-c2cc(=O)c3c(OC)c(OC)c(OC)c(OC)c3o2)cc1 [tangeritin]	92.4
COC(=O)CC[C@@H]1N=C(c2ccccn2)c2cc(Br)ccc2-n2c(C)cnc21 [remimazolam]	99.3
CC(C)C[C@@H]1NC(=O)[C@@H](C(C)C)NC(=O)[C@@H]2CCCN2C(=O)[C@@H](CC(=O)O)NC(=O)[C@@H](Cc2c[nH]c3ccccc23)NC1=O [BQ-123]	92.2

Let's switch to this compound now.
Item Cc1ccsc1C(=CCCN1CCC[C@@H](C(=O)O)C1)c1sccc1C [tiagabine] with Vero E6 - cell viability? 92.4

* * *

Test system: Caco-2
TEST_NAME: cell viability relative to DMSO; higher = less toxic
CONDITION_LABEL: 72 h; 100 nM
VALUE_KIND: cell viability (%)
Your answer is read as %, so omit the unit and give the number.

COMPOUND	cell viability, %
O=c1cc(-c2ccc(O)c(O)c2)oc2cc(O)cc(O)c12	95.9
O=C(O)CCCCC(=O)O	95.1

Reported cell viability for Caco-2, given CCCC1(CCC)CCC2(CCN(CCCN(CC)CC)C2)CC1 ? 98.4

Recorded cell viability for O=C(c1ccc(/C=C/c2n[nH]c3ccccc23)cc1)N1CCNCC1 with Caco-2, please? 97.2

Short answer please: cell viability, Caco-2, entry CCCC(=O)O [sodium-butyrate] 100

* * *

System: Caco-2
TEST_NAME: cell viability relative to DMSO; higher = less toxic
CONDITION_LABEL: 72 h; 100 nM
VALUE_KIND: cell viability (%)
// note: answer is a bare numeric in %

For orientation, consider the following solved cases.
> print(dat)
                                   compound      value.kind  output.unit  experimental.value
1  C=C1/C(=C\C=C2/CCC[C@]3(C)[C@@H]([C@H](C)/C=C/[C@@H](O)C4CC4)CC[C@@H]23)C[C@@H](O)C[C@@H]1O [calcipotriol]  cell viability            %                99.6
2  CCCC(CCC)C(=O)Nc1ccn([C@@H]2O[C@H](CO)[C@@H](O)C2(F)F)c(=O)n1  cell viability            %                94.3
3  C[C@@H]1CC(=O)NN=C1c1ccc(NN=C(C#N)C#N)cc1 [levosimendan]  cell viability            %                98.9
4  CC(O)c1cc(C(=O)N[C@@H](C)Cn2ccc(-c3ccc(C#N)c(Cl)c3)n2)n[nH]1 (stereo partly drawn) [ODM-201]  cell viability            %                 102
5  COc1nccc(-c2c(-c3ccc(F)cc3)ncn2C2CCNCC2)n1  cell viability            %                87.6

Can you share its cell viability? I mean this compound: O=C(Nc1ccc(N2CCC(C(=O)N3CCOCC3)CC2)cc1)c1cnc(Oc2ccccc2)nc1 [TFC-007] 110

Param item = COc1ccc(N2CCOCC2)c2sc(NC(=O)N3CCC(C)(O)CC3)nc12 [tozadenant] ; retrieve measured cell viability. 110

Request the reported cell viability associated with CC(C)(C)Cn1c(N)nc2ccc(-c3[nH]c(C(C)(C)C)nc3-c3ccc(F)cc3)nc21 89.6

* * *

Tested on: Caco-2
TEST_NAME: cell viability relative to DMSO; higher = less toxic
CONDITION_LABEL: 72 h; 10 nM
Measured cell viability values are reported for all entries that follow.
State just the number; it will be interpreted in %.

Reference set (2 entries):
COMPOUND	EXPERIMENTAL_SYSTEM	cell viability [%]
CCCCOC(=O)c1ccccc1Nc1cccc(C(F)(F)F)c1 [ufenamate]	Caco-2	102
COc1cc(NC(C)CCCN)c2ncccc2c1 (stereo not drawn)	Caco-2	108

Caco-2 / cell viability / Cn1cc(-c2ccc(F)c(C(F)(F)F)c2)nc1C1CCN(c2ncnc3[nH]ncc23)CC1 : value? 96.9

Kindly state the measured cell viability obtained for Cc1ccsc1C(=CCCN1CCC[C@@H](C(=O)O)C1)c1sccc1C with Caco-2. 97.9

State its cell viability on Caco-2: CC(C)(C)Cn1c(N)nc2ccc(-c3[nH]c(C(C)(C)C)nc3-c3ccc(F)cc3)nc21 98.1

Value wanted: cell viability (Caco-2) of entry CCCOc1ccc2[nH]cc(C3=CCNCC3)c2n1 95.4

What reported cell viability corresponds to Nc1ncnc2c1ncn2[C@@H]1O[C@H](COP(=O)(O)OP(=O)(O)OP(=O)(O)OP(=O)(O)OC[C@H]2O[C@@H](n3cnc4c(N)ncnc43)[C@H](O)[C@@H]2O)[C@@H](O)[C@H]1O [diadenosine-tetraphosphate] on Caco-2? 97.8

Notebook: pull reported cell viability for Caco-2, entry C[C@H](NC(=O)/C(C#N)=C/c1ccc(O)c(O)c1)c1ccccc1 97.2

* * *

System: U2OS
TEST_NAME: cell viability relative to DMSO; higher = less toxic
CONDITION_LABEL: 72 h; 1 nM
VALUE_KIND: cell viability (%)
Return type: number; implicit unit %.

COMPOUND	cell viability, %
CC(O)c1cc(C(=O)N[C@@H](C)Cn2ccc(-c3ccc(C#N)c(Cl)c3)n2)n[nH]1 (some centres undefined)	98.3
C[C@@H]1C[C@H]2[C@@H]3CCC4=CC(=O)C=C[C@]4(C)[C@@]3(Cl)[C@@H](O)C[C@]2(C)[C@@]1(OC(=O)c1ccco1)C(=O)CCl [MOMETASONE FUROATE]	98.5
CCCCCCCCCC(=O)OCCN1CCN(CCCN2c3ccccc3Sc3ccc(C(F)(F)F)cc32)CC1 [fluphenazine-decanoate]	97.2

Could you now consider this next compound?
So what does the record say about cell viability for CCn1ccnc1CC1COc2ccccc2O1 (centres undefined) ? 101

* * *

Test system: Caco-2
TEST_NAME: cell viability relative to DMSO; higher = less toxic
CONDITION_LABEL: 72 h; 1 nM
VALUE_KIND: cell viability (%)
Please give a number only; it is taken to be in %.

Known results for compounds:
> print(dat)
                                   compound  experimental.value
1         O=C(/C=C/c1ccc(O)cc1)c1ccc(O)cc1O                 102
2  CNC(=O)[C@@H](NC(=O)[C@H](CC(C)C)[C@H](O)C(=O)NO)C(C)(C)C                79.5
3  C=C1C(=O)O[C@@H]2/C=C(\C)CC/C=C(\C)CC[C@@H]12 [costunolide]                96.5
4  CCOC(=O)[C@H](CCc1ccccc1)N[C@@H](C)C(=O)N(CC(=O)O)C1Cc2ccccc2C1                 106
5       Cc1ccc(NC2=CC(=O)c3sc(C)nc3C2=O)cc1                94.2

For the compound shown here, N[C@H](Cc1ccccc1)C(=O)O , give the reported cell viability. 94.6

// returns reported cell viability for input O=S(=O)(O)NC1CCCCC1 107

Please look up its cell viability: Cc1cc(CCC[C@H](CC(=O)NO)C(=O)N[C@H](C(=O)N[C@H](C)c2ccccc2)C(C)(C)C)ccc1-c1ccccc1 105

What does the data say about its cell viability? Entry: NC(=O)[C@@H]1CC[C@@H]2CN1C(=O)N2OS(=O)(=O)O 101

Report cell viability for CN1CCN(CC/C=C2/c3ccccc3Sc3ccc(S(=O)(=O)N(C)C)cc32)CC1 please. 107

// cell viability lookup, key: Cc1cc(Oc2ccc3nc(COc4ccc(CC5SC(=O)NC5=O)cc4)n(C)c3c2)cc(C)c1N (stereo not drawn) 102

I am curious: what cell viability value has been reported for C[C@@H]1CC(=O)NN=C1c1ccc(NN=C(C#N)C#N)cc1 ? 97.2

Record request: cell viability value, item CCOC(=O)C1=C(C)NC(C)=C(C(=O)OC)[C@@H]1c1cccc([N+](=O)[O-])c1 (racemic) 81.3

Which cell viability value belongs to CC1=C(/C=C/C(C)=C/C=C/C(C)=C/C(=O)Nc2ccc(O)cc2)C(C)(C)CCC1 [fenretinide] ? 98.7

Would you kindly share the measured cell viability for CNC(=O)c1ccc(C)c(-n2c(C)cc(OCc3ccc(F)cc3F)c(Br)c2=O)c1 ? 90.9
